Please respond with reported viability, T/C for every item in the list.
Tested on: 616215-338-R-J1-PDC complex spheroid viability
run-description: Anticancer human tumor 616215-338-R-J1-PDC patient-derived colon adenocarcinoma cell line growth inhibition [RAS]
test-context: second compound 3.16 µM; first compound 0.0316 µM; hits give low values
Give bare numbers, in %.

Guide cases for viability, T/C, answers given:
Item under review: CC(C)NCC(C(=O)N1CCN(c2ncnc3c2C(C)CC3O)CC1)c1ccc(Cl)cc1 (stereo not given) + C#Cc1c(F)ccc2cc(O)cc(-c3ncc4c(N5CC6CCC(C5)N6)nc(OCC56CCCN5CC(F)C6)nc4c3F)c12 . Reported viability, T/C?
107

Item under review: NC1c2ccccc2OC12CCN(c1cnc3c(N4CCCc5ncccc54)n[nH]c3n1)CC2 (stereo not given) + C#Cc1c(F)ccc2cc(O)cc(-c3ncc4c(N5CC6CCC(C5)N6)nc(OCC56CCCN5CC(F)C6)nc4c3F)c12 . Reported viability, T/C?
50.5

Item under review: CCN1CCN(Cc2ccc(Nc3ncc(F)c(-c4cc(F)c5nc(C)n(C(C)C)c5c4)n3)nc2)CC1 + C#Cc1c(F)ccc2cc(O)cc(-c3ncc4c(N5CC6CCC(C5)N6)nc(OCC56CCCN5CC(F)C6)nc4c3F)c12 . Reported viability, T/C?
70

Item under review: C=CC(=O)Nc1cc(Nc2nccc(-c3cn(C)c4ccccc34)n2)c(OC)cc1N(C)CCN(C)C + C#Cc1c(F)ccc2cc(O)cc(-c3ncc4c(N5CC6CCC(C5)N6)nc(OCC56CCCN5CC(F)C6)nc4c3F)c12 . Reported viability, T/C?
79.8

With those in mind, consider the next compound.
Item under review: CCC(CC)c1cc(NC2CCC(N)C2)n2nccc2n1 (stereo not given) + C#Cc1c(F)ccc2cc(O)cc(-c3ncc4c(N5CC6CCC(C5)N6)nc(OCC56CCCN5CC(F)C6)nc4c3F)c12 . Reported viability, T/C?
115

----------
Tested on: 616215-338-R-J1-PDC complex spheroid viability
run-description: Anticancer human tumor 616215-338-R-J1-PDC cell line growth inhibition [RAS];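 further: spheroids exposed to agents for seven days before viability readout; 100% = DMSO vehicle control viability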
test-context: second compound 0.0316 µM; first compound 0.01 µM; hits give low values
From the text: RAS pathway inhibitors in Combinations in Complex Spheroids A high-throughput screen of multi-cell type tumor spheroids was designed to identify active combinations of RAS pathway inhibitors and targeted small molecules. Complex spheroids include a stromal component modeled by human endothelial cells (HUVEC) and fibroblasts modeled by human mesenchymal stem cells (MSCs). […] Compounds. […] If the clinical Cmax for an agent had not been determined, the highest concentration tested was 10 microM. […]
Please respond with reported viability, T/C for every item in the list.
Answers are plain numbers, in %.

Item under review: C=CC(=O)N1CCN(c2nc(OCC3CCCN3C)nc3c(F)c(-c4nc(N)cc(C)c4C(F)(F)F)c(Cl)cc23)C(C)C1 (stereo unspecified) + C#Cc1c(F)ccc2cc(O)cc(-c3ncc4c(N5CC6CCC(C5)N6)nc(OCC56CCCN5CC(F)C6)nc4c3F)c12 . Reported viability, T/C?
112

// batch mode: one viability, T/C value per listed entry
1. O=C(c1ccc(F)c(F)c1Nc1ccc(I)cc1F)N1CC(O)([C@@H]2CCCCN2)C1 + C#Cc1c(F)ccc2cc(O)cc(-c3ncc4c(N5CC6CCC(C5)N6)nc(OCC56CCCN5CC(F)C6)nc4c3F)c12
2. C=CC(=O)Nc1cc(Nc2nccc(-c3cn(C)c4ccccc34)n2)c(OC)cc1N(C)CCN(C)C + C=CC(=O)N1CCN(c2nc(OCC3CCCN3C)nc3c(F)c(-c4nc(N)cc(C)c4C(F)(F)F)c(Cl)cc23)C(C)C1
3. CC(C)n1nc(-c2ccc3oc(N)nc3c2)c2c(N)ncnc21 + C=CC(=O)N1CCN(c2nc(OCC3CCCN3C)nc3c(F)c(-c4nc(N)cc(C)c4C(F)(F)F)c(Cl)cc23)C(C)C1
4. C=CC(=O)Nc1cc(Nc2nccc(-c3cn(C)c4ccccc34)n2)c(OC)cc1N(C)CCN(C)C + C#Cc1c(F)ccc2cc(O)cc(-c3ncc4c(N5CC6CCC(C5)N6)nc(OCC56CCCN5CC(F)C6)nc4c3F)c12
5. CCN1CCN(Cc2ccc(Nc3ncc(F)c(-c4cc(F)c5nc(C)n(C(C)C)c5c4)n3)nc2)CC1 + C=CC(=O)N1CCN(c2nc(OCC3CCCN3C)nc3c(F)c(-c4nc(N)cc(C)c4C(F)(F)F)c(Cl)cc23)C(C)C1

[98, 110, 111, 109, 124]

----------
System: 616215-338-R-J1-PDC complex spheroid viability
run-description: Anticancer human tumor 616215-338-R-J1-PDC cell line growth inhibition [RAS];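 further: spheroids exposed to agents for seven days before viability readout; 100% = DMSO vehicle control viability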
test-context: second compound 0.1 µM; first compound 3.16 µM; hits give low values
Threshold check on viability, T/C: strictly below 60% is 1 (yes); on or above 60% is 0 (no).

Some solved cases for reference:
Strictly below 60% in viability, T/C? CC1(O)CCCC1n1c(=O)c(C(F)F)cc2cnc(NC3CCN(S(C)(=O)=O)CC3)nc21 (stereo not given) + C#Cc1c(F)ccc2cc(O)cc(-c3ncc4c(N5CC6CCC(C5)N6)nc(OCC56CCCN5CC(F)C6)nc4c3F)c12
1 (yes)

Strictly below 60% in viability, T/C? C[C@@H](NC(=O)c1ncnc(N)c1Cl)c1ncc(C(=O)Nc2cc(C(F)(F)F)c(Cl)cn2)s1 + C=CC(=O)N1CCN(c2nc(OCC3CCCN3C)nc3c(F)c(-c4nc(N)cc(C)c4C(F)(F)F)c(Cl)cc23)C(C)C1
0 (no)

Strictly below 60% in viability, T/C? CC(Nc1ccc2c(c1)OCCn1cc(N3C(=O)OCC3C(F)F)nc1-2)C(N)=O (stereo not given) + C#Cc1c(F)ccc2cc(O)cc(-c3ncc4c(N5CC6CCC(C5)N6)nc(OCC56CCCN5CC(F)C6)nc4c3F)c12
0 (no)

Strictly below 60% in viability, T/C? CC1(O)CCCC1n1c(=O)c(C(F)F)cc2cnc(NC3CCN(S(C)(=O)=O)CC3)nc21 (stereo not given) + C=CC(=O)N1CCN(c2nc(OCC3CCCN3C)nc3c(F)c(-c4nc(N)cc(C)c4C(F)(F)F)c(Cl)cc23)C(C)C1
1 (yes)

Next up:
Strictly below 60% in viability, T/C? NC1c2ccccc2OC12CCN(c1cnc3c(N4CCCc5ncccc54)n[nH]c3n1)CC2 (stereo not given) + C#Cc1c(F)ccc2cc(O)cc(-c3ncc4c(N5CC6CCC(C5)N6)nc(OCC56CCCN5CC(F)C6)nc4c3F)c12
1 (yes)

----------
Test system: 616215-338-R-J1-PDC complex spheroid viability
run-description: Anticancer human tumor 616215-338-R-J1-PDC cell line growth inhibition [RAS];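 further: spheroids exposed to agents for seven days before viability readout; 100% = DMSO vehicle control viability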
test-context: second compound 0.003 µM; first compound 1 µM; hits give low values
Threshold check on viability, T/C: strictly below 80% is 1.0; on or above 80% is 0.0.

Strictly below 80% in viability, T/C? CCN1CCN(Cc2ccc(Nc3ncc(F)c(-c4cc(F)c5nc(C)n(C(C)C)c5c4)n3)nc2)CC1 + CCn1c(-c2cccnc2C(C)OC)c2c3cc(ccc31)N1CCOC(CC(NC(=O)C(C(C)C)N(C)C(=O)C3(F)CCN(C(=O)C#CC(C)(C)N(C)C)CC3)C(=O)N3CCCC(N3)C(=O)OCC(C)(C)C2)C1
1.0

Strictly below 80% in viability, T/C? Cc1nc(N2CCC3(CC2)COC(C)C3N)c(CO)nc1Sc1ccnc(N)c1Cl (centres undefined) + CCn1c(-c2cccnc2C(C)OC)c2c3cc(ccc31)N1CCOC(CC(NC(=O)C(C(C)C)N(C)C(=O)C3(F)CCN(C(=O)C#CC(C)(C)N(C)C)CC3)C(=O)N3CCCC(N3)C(=O)OCC(C)(C)C2)C1
0.0

Strictly below 80% in viability, T/C? CC1(O)CCCC1n1c(=O)c(C(F)F)cc2cnc(NC3CCN(S(C)(=O)=O)CC3)nc21 (centres undefined) + CCn1c(-c2cccnc2C(C)OC)c2c3cc(ccc31)N1CCOC(CC(NC(=O)C(C(C)C)N(C)C(=O)C3(F)CCN(C(=O)C#CC(C)(C)N(C)C)CC3)C(=O)N3CCCC(N3)C(=O)OCC(C)(C)C2)C1
1.0

Strictly below 80% in viability, T/C? CCN1CCN(Cc2ccc(Nc3ncc(F)c(-c4cc(F)c5nc(C)n(C(C)C)c5c4)n3)nc2)CC1 + CCn1c(-c2cc(N3CCN(C)CC3)cnc2C(C)OC)c2c3cc(ccc31)-c1csc(n1)CC(NC(=O)C1CC1C)C(=O)N1CCCC(N1)C(=O)OCC(C)(C)C2
1.0

Strictly below 80% in viability, T/C? NC1c2ccccc2OC12CCN(c1cnc3c(N4CCCc5ncccc54)n[nH]c3n1)CC2 (centres undefined) + CCn1c(-c2cccnc2C(C)OC)c2c3cc(ccc31)N1CCOC(CC(NC(=O)C(C(C)C)N(C)C(=O)C3(F)CCN(C(=O)C#CC(C)(C)N(C)C)CC3)C(=O)N3CCCC(N3)C(=O)OCC(C)(C)C2)C1
1.0

Strictly below 80% in viability, T/C? C=CC(=O)Nc1cc(Nc2nccc(-c3cn(C)c4ccccc34)n2)c(OC)cc1N(C)CCN(C)C + CCn1c(-c2cccnc2C(C)OC)c2c3cc(ccc31)N1CCOC(CC(NC(=O)C(C(C)C)N(C)C(=O)C3(F)CCN(C(=O)C#CC(C)(C)N(C)C)CC3)C(=O)N3CCCC(N3)C(=O)OCC(C)(C)C2)C1
1.0

---
Strictly below 80% in viability, T/C? CC(Nc1ccc2c(c1)OCCn1cc(N3C(=O)OCC3C(F)F)nc1-2)C(N)=O (centres undefined) + CCn1c(-c2cccnc2C(C)OC)c2c3cc(ccc31)N1CCOC(CC(NC(=O)C(C(C)C)N(C)C(=O)C3(F)CCN(C(=O)C#CC(C)(C)N(C)C)CC3)C(=O)N3CCCC(N3)C(=O)OCC(C)(C)C2)C1
0.0

Strictly below 80% in viability, T/C? Cc1nc(N2CCC3(CC2)COC(C)C3N)c(CO)nc1Sc1ccnc(N)c1Cl (centres undefined) + CCn1c(-c2cc(N3CCN(C)CC3)cnc2C(C)OC)c2c3cc(ccc31)-c1csc(n1)CC(NC(=O)C1CC1C)C(=O)N1CCCC(N1)C(=O)OCC(C)(C)C2
1.0

Strictly below 80% in viability, T/C? CC(Nc1ccc2c(c1)OCCn1cc(N3C(=O)OCC3C(F)F)nc1-2)C(N)=O (centres undefined) + CCn1c(-c2cc(N3CCN(C)CC3)cnc2C(C)OC)c2c3cc(ccc31)-c1csc(n1)CC(NC(=O)C1CC1C)C(=O)N1CCCC(N1)C(=O)OCC(C)(C)C2
0.0

Strictly below 80% in viability, T/C? CC(C)NCC(C(=O)N1CCN(c2ncnc3c2C(C)CC3O)CC1)c1ccc(Cl)cc1 (centres undefined) + CCn1c(-c2cccnc2C(C)OC)c2c3cc(ccc31)N1CCOC(CC(NC(=O)C(C(C)C)N(C)C(=O)C3(F)CCN(C(=O)C#CC(C)(C)N(C)C)CC3)C(=O)N3CCCC(N3)C(=O)OCC(C)(C)C2)C1
0.0

Strictly below 80% in viability, T/C? C=CC(=O)N1CCN(c2nc(OCC3CCCN3C)nc3c(F)c(-c4nc(N)cc(C)c4C(F)(F)F)c(Cl)cc23)C(C)C1 (centres undefined) + CCn1c(-c2cccnc2C(C)OC)c2c3cc(ccc31)N1CCOC(CC(NC(=O)C(C(C)C)N(C)C(=O)C3(F)CCN(C(=O)C#CC(C)(C)N(C)C)CC3)C(=O)N3CCCC(N3)C(=O)OCC(C)(C)C2)C1
0.0

Strictly below 80% in viability, T/C? CCC(CC)c1cc(NC2CCC(N)C2)n2nccc2n1 (centres undefined) + CCn1c(-c2cccnc2C(C)OC)c2c3cc(ccc31)N1CCOC(CC(NC(=O)C(C(C)C)N(C)C(=O)C3(F)CCN(C(=O)C#CC(C)(C)N(C)C)CC3)C(=O)N3CCCC(N3)C(=O)OCC(C)(C)C2)C1
0.0

Strictly below 80% in viability, T/C? C=CC(=O)Nc1cc(Nc2nccc(-c3cn(C)c4ccccc34)n2)c(OC)cc1N(C)CCN(C)C + CCn1c(-c2cc(N3CCN(C)CC3)cnc2C(C)OC)c2c3cc(ccc31)-c1csc(n1)CC(NC(=O)C1CC1C)C(=O)N1CCCC(N1)C(=O)OCC(C)(C)C2
1.0

Strictly below 80% in viability, T/C? O=C(c1ccc(F)c(F)c1Nc1ccc(I)cc1F)N1CC(O)([C@@H]2CCCCN2)C1 + CCn1c(-c2cc(N3CCN(C)CC3)cnc2C(C)OC)c2c3cc(ccc31)-c1csc(n1)CC(NC(=O)C1CC1C)C(=O)N1CCCC(N1)C(=O)OCC(C)(C)C2
1.0
